Origin of values: patent US20250282799A1

test system: KRAS G12V dependent lung adenocarcinoma cell line, NCI-H441; experiment: Cellular pERK (Thr202/Tyr204) FRET/HTRF assay; type: cell-based; conditions: Homo sapiens, NCI-H441, cellular pERK (Thr202/Tyr204) HTRF, NCI-H441 cells
Item-by-item account of IC50

{"Molecule": "[2H]C([2H])(Oc1nc(N2CCOC[C@H]3[C@H](F)[C@H]32)c2cc(F)c(-c3cc(N)cc(C4CC4)c3C(F)(F)F)c(F)c2n1)[C@@]12CCCN1C[C@H](F)C2 [Example 163]", "Subject Of Test": "KRAS G12V dependent lung adenocarcinoma cell line, NCI-H441", "IC50": "500 to 10000 nM"}
{"Molecule": "C#Cc1c(F)ccc2cc(N)cc(-c3ncc4c(N5CCOC[C@H]6[C@H](F)[C@H]65)nc(OC[C@@]56CCCN5CC(=C)C6)nc4c3F)c12 [Example 158]", "Subject Of Test": "KRAS G12V dependent lung adenocarcinoma cell line, NCI-H441", "IC50": "< 50 nM"}
{"Molecule": "C#Cc1c(F)ccc2cc(N)cc(-c3ncc4c(N5CCOC[C@H]6[C@H](F)[C@H]65)nc(OC[C@]56C[C@H](C)CN5CCC65CC5)nc4c3F)c12 (single isomer, unassigned) [Example 251]", "Subject Of Test": "KRAS G12V dependent lung adenocarcinoma cell line, NCI-H441", "IC50": "< 50 nM"}

====

biological target: KRAS (G12V)/CRAF (Homo sapiens (Human), UniProt P01116, G12V); assay: TR-FRET biochemical KRAS:CRAF protein:protein interaction assay, KRAS (G12V); details: GMPPNP loaded Biotin-KRAS (G12V), FLAG CRAF RBD; read-out: TR-Fret_PPI KRAS (G12V)/CRAF IC50
Sequence (P01116-2 other isoform, or with tags, fused parts or gaps G12V): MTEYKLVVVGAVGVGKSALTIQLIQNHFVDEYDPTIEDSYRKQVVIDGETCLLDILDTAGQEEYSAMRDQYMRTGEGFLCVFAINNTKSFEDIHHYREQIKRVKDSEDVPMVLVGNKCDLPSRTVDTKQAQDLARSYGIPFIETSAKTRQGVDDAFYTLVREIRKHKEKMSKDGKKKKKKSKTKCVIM
Item-by-item account of IC50
Endpoint: IC50 (nM)

{"Smiles Code": "[2H]C([2H])(Oc1nc(N2CCCC[C@H]3C[C@H]32)c2cnc(-c3cc(N)cc4cc(F)c(F)c(C#C)c34)c(F)c2n1)[C@@]12CCCN1C[C@H](F)C2", "Subject Of Test": "KRAS (G12V)/CRAF (Homo sapiens (Human), UniProt P01116, G12V)", "Endpoint": "IC50", "Scale Unit": "nM", "Qualifier Symbol": "=", "Numeric Readout": 213}
{"Smiles Code": "[2H]C([2H])(Oc1nc(N2CCOC[C@H]3[C@H](F)[C@H]32)c2c(OC)nc(-c3cc(N)cc4ccc(F)c(C#C)c34)c(F)c2n1)[C@@]12CCCN1C[C@H](F)C2", "Subject Of Test": "KRAS (G12V)/CRAF (Homo sapiens (Human), UniProt P01116, G12V)", "Endpoint": "IC50", "Scale Unit": "nM", "Qualifier Symbol": "=", "Numeric Readout": 53.7}
{"Smiles Code": "[2H]C([2H])(Oc1nc(N2CCCC[C@@H]3[C@H](Cl)[C@@H]32)c2cnc(-c3cc(N)cc4ccc(F)c(C#C)c34)c(F)c2n1)[C@@]12CCCN1C[C@H](F)C2", "Subject Of Test": "KRAS (G12V)/CRAF (Homo sapiens (Human), UniProt P01116, G12V)", "Endpoint": "IC50", "Scale Unit": "nM", "Qualifier Symbol": "≥", "Numeric Readout": 10000}
{"Smiles Code": "[2H]C([2H])(Oc1nc(N2CC=CC[C@H]3[C@H](F)[C@H]32)c2cnc(-c3cc(N)cc4cc(F)c(F)c(C#C)c34)c(F)c2n1)[C@@]12CCCN1C[C@H](F)C2", "Subject Of Test": "KRAS (G12V)/CRAF (Homo sapiens (Human), UniProt P01116, G12V)", "Endpoint": "IC50", "Scale Unit": "nM", "Qualifier Symbol": "=", "Numeric Readout": 155}

====

Item-by-item account of IC50
system: KRAS G12V dependent lung adenocarcinoma cell line, NCI-H441; assay: Cellular pERK (Thr202/Tyr204) FRET/HTRF assay; assay type: cell-based; conditions: Homo sapiens, NCI-H441, cellular pERK (Thr202/Tyr204) HTRF, NCI-H441 cells
Endpoint: IC50

{"Smiles Code": "C#Cc1c(F)ccc2cc(O)cc(-c3ncc4c(N5CCCO[C@@H]6C[C@@H]65)nc(OC[C@@]5(C)CCCN5)nc4c3F)c12", "Result": "500 to 10000 nM"}
{"Smiles Code": "[2H]C([2H])(Oc1nc(N2CCOC[C@@H]3[C@H](F)[C@@H]32)c2cnc(-c3cc(N)cc4ccc(F)c(C#C)c34)c(F)c2n1)[C@@]12CCCN1C[C@H](F)C2", "Result": "500 to 10000 nM"}
{"Smiles Code": "[2H]C([2H])(F)Oc1c(F)c(F)cc2cc(N)cc(-c3ncc4c(N5CCOC[C@H]6[C@H](F)[C@H]65)nc(OC[C@@]56CCCN5C/C(=C\\F)C6)nc4c3F)c12", "Result": "< 50 nM"}
{"Smiles Code": "[2H]C([2H])(Oc1nc(N2CCOC[C@H]3[C@H](F)[C@H]32)c2cnc(-c3cc(O)cc4cccc(C#C)c34)c(F)c2n1)[C@@]12CCCN1C[C@H](F)C2", "Result": "< 50 nM"}
{"Smiles Code": "[2H]C([2H])(Oc1nc(N2CCOC[C@H]3[C@H](F)[C@H]32)c2cnc(-c3cc(N)cc4ccc(F)c(C=C)c34)c(F)c2n1)[C@@]12CCCN1C[C@H](F)C2", "Result": "< 50 nM"}

====

biological target: KRAS (G12D)/CRAF (Homo sapiens (Human), UniProt P01116, G12D); test: TR-FRET biochemical KRAS:CRAF protein:protein interaction assay, KRAS (G12D); conditions: GMPPNP loaded Biotin-KRAS (G12D), FLAG CRAF RBD; read-out: TR-Fret_PPI KRAS (G12D)/CRAF IC50
Sequence (P01116-2 other isoform, or with tags, fused parts or gaps G12D): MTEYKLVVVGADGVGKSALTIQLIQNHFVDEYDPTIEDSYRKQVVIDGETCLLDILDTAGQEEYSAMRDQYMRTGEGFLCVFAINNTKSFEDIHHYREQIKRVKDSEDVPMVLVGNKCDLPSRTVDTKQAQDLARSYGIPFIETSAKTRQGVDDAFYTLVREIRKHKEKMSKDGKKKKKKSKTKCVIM
Item-by-item account of IC50
Endpoint: IC50 (nM)

{"Compound": "[2H]C([2H])(Oc1nc(N2CCCO[C@@H]3[C@@H](Cl)[C@@H]32)c2cnc(-c3cc(N)cc4ccc(F)c(C#C)c34)c(F)c2n1)[C@@]12CCCN1C[C@H](F)C2 [Example 317]", "Scale Unit": "nM", "Qualifier Symbol": "=", "Numeric Readout": 3000}
{"Compound": "[2H]C([2H])(Oc1nc(N2CCCC[C@@H]3[C@@H](Cl)[C@@H]32)c2cnc(-c3cc(N)cc4ccc(F)c(C#C)c34)c(F)c2n1)[C@@]12CCCN1C[C@H](F)C2 [Example 341]", "Scale Unit": "nM", "Qualifier Symbol": "=", "Numeric Readout": 1790}
{"Compound": "C#Cc1c(F)ccc2cc(N)cc(-c3ncc4c(N5CCCC[C@H]6C[C@H]65)nc(OC[C@@]56CCCN5C[C@H](F)C6)nc4c3F)c12 [Example 5]", "Scale Unit": "nM", "Qualifier Symbol": "=", "Numeric Readout": 24.2}
{"Compound": "[2H]C([2H])(Oc1nc(N2CC=CC[C@@H]3[C@@H](F)[C@@H]32)c2cnc(-c3cc(N)cc4cc(F)c(F)c(C#C)c34)c(F)c2n1)[C@@]12CCCN1C[C@H](F)C2 [Example 138]", "Scale Unit": "nM", "Qualifier Symbol": "≥", "Numeric Readout": 10000}
{"Compound": "[2H]C([2H])(Oc1nc(N2CCOC[C@H]3[C@@H](F)[C@H]32)c2cnc(-c3cc(N)cc4ccc(F)c(C#C)c34)c(F)c2n1)[C@@]12CCCN1C[C@H](F)C2 [Example 225]", "Scale Unit": "nM", "Qualifier Symbol": "=", "Numeric Readout": 264}

====

Item-by-item account of IC50
system: KRAS G12V dependent lung adenocarcinoma cell line, NCI-H441; assay: Cellular pERK (Thr202/Tyr204) FRET/HTRF assay; assay type: cell-based; conditions: Homo sapiens, NCI-H441, pERK HTRF, NCI-H441 cells (KRAS G12V)

{"Smiles Code": "[2H]C([2H])([2H])Oc1c(F)ccc2cc(N)cc(-c3ncc4c(N5CCOC[C@H]6[C@H](F)[C@H]65)nc(OC([2H])([2H])[C@@]56CCCN5C[C@H](F)C6)nc4c3F)c12", "Subject Of Test": "KRAS G12V dependent lung adenocarcinoma cell line, NCI-H441", "IC50": "< 50 nM"}
{"Smiles Code": "[2H]C([2H])([2H])Oc1c(F)c(F)c(F)c2cc(N)cc(-c3ncc4c(N5CCCO[C@H]6[C@H](F)[C@H]65)nc(OC([2H])([2H])[C@@]56CCCN5C[C@H](F)C6)nc4c3F)c12", "Subject Of Test": "KRAS G12V dependent lung adenocarcinoma cell line, NCI-H441", "IC50": "< 50 nM"}
{"Smiles Code": "[2H]C([2H])(Oc1nc(N2CCCC[C@@H]3C[C@@H]32)c2cnc(-c3cc(N)cc4cc(F)c(F)c(C#C)c34)c(F)c2n1)[C@@]12CCCN1C[C@H](F)C2", "Subject Of Test": "KRAS G12V dependent lung adenocarcinoma cell line, NCI-H441", "IC50": "500 to 10000 nM"}
{"Smiles Code": "[2H]C([2H])(Oc1nc(N2CCCO[C@H]3[C@@H](F)[C@H]32)c2cnc(-c3cc(N)cc4cc(F)c(F)c(C#C)c34)c(F)c2n1)[C@@]12CCCN1C[C@H](F)C2", "Subject Of Test": "KRAS G12V dependent lung adenocarcinoma cell line, NCI-H441", "IC50": "500 to 10000 nM"}
{"Smiles Code": "[2H]C([2H])(Oc1nc(N2CCOC[C@@H]3[C@@H](F)[C@@H]32)c2cnc(-c3cc(N)cc4cc(F)c(F)c(C#C)c34)c(F)c2n1)[C@@]12CCCN1C[C@H](F)C2", "Subject Of Test": "KRAS G12V dependent lung adenocarcinoma cell line, NCI-H441", "IC50": "50 to 500 nM"}
{"Smiles Code": "[2H]C([2H])(Oc1nc(N2CCCO[C@@H]3C[C@@H]32)c2c(OC)nc(-c3cc(N)cc4cc(F)c(F)c(C#C)c34)c(F)c2n1)[C@@]12CCCN1C[C@H](F)C2", "Subject Of Test": "KRAS G12V dependent lung adenocarcinoma cell line, NCI-H441", "IC50": "50 to 500 nM"}
{"Smiles Code": "[2H]C([2H])(Oc1nc(N2CCOC[C@H]3[C@@H](F)[C@H]32)c2cnc(-c3cc(N)cc4cc(F)c(F)c(C#C)c34)c(F)c2n1)[C@@]12CCCN1C[C@H](F)C2", "Subject Of Test": "KRAS G12V dependent lung adenocarcinoma cell line, NCI-H441", "IC50": "< 50 nM"}
{"Smiles Code": "[2H]C([2H])(Oc1nc(N2CCCC[C@H]3[C@H](F)[C@H]32)c2cnc(-c3cncc4cc(F)c(F)c(OC)c34)c(F)c2n1)[C@@]12CCCN1C[C@H](F)C2", "Subject Of Test": "KRAS G12V dependent lung adenocarcinoma cell line, NCI-H441", "IC50": "50 to 500 nM"}
{"Smiles Code": "[2H]C([2H])(Oc1nc(N2CCC[C@@H]3[C@H](F)[C@@H]32)c2cnc(-c3cc(N)cc4cc(F)c(F)c(C#C)c34)c(F)c2n1)[C@@]12CCCN1C[C@H](F)C2", "Subject Of Test": "KRAS G12V dependent lung adenocarcinoma cell line, NCI-H441", "IC50": "500 to 10000 nM"}
{"Smiles Code": "[2H]C([2H])(Oc1nc(N2CCCC[C@H]3[C@H](F)[C@H]32)c2cnc(-c3cc(N)cc4c(F)c(F)c(F)c(C#C)c34)c(F)c2n1)[C@@]12CCCN1C[C@H](F)C2", "Subject Of Test": "KRAS G12V dependent lung adenocarcinoma cell line, NCI-H441", "IC50": "< 50 nM"}
